pEC50 values for the binders below.
Biological target: SARS-CoV-2 Spike protein (Receptor Binding Domain, RBD) (UniProt P0DTC2 331-524)
Assay: ELISA
Would you please state pEC50, meaning minus log10 of the concentration in mol/L, as a bare number?

| Binder | pEC50 |
| --- | --- |
| 414-3-2 antibody (antibody, V domains shown) VH: QVQLVESGGGVVQPGRSLRLSCAASGFTFSSYAMHWVRQAPGKGLEWVALISYDGSNKYYADSVKGRFTISRDNSKNTLYLQMNSLRAEDTAVYYCARDGGGWFDPWGQGTLVTVSS VL: QTVVTQPASVSGSPGQSITISCTGTSSDVGGYNYVSWYQQHPGKAPKLMIYDVSKRPSGVSNRFSGSKSGNTASLTISGLQAEDEADYYCSSYTSSSPWVFGGGTELTVL | 8.18 |

Query block: Report pEC50 for 105-9 antibody (antibody, V domains shown) VH: EVQLVESGGGLVKPGRSLRLSCTASGFTFGDYAMSWFRQAPGKGLEWVGFIRSKAYGWTTQYAASVKGRFTISRDDSKSIAYLQMKSLNSEDTAVYYCTRDPWGTTYFDYWGQGTLVTVSS VL: EIVMTQSPATLSVSPGERATLSCRASQSVSSNLAWYQQKPGQGPRLLIYGASTRATGVPARFSGSGSGTDFTLTISSLQSEDFAIYYCQHYNNWFTFGQGTKVEIK please.
Result block: 7.82

Query block: Requested read-out: pEC50. Entry: 105-43 antibody (antibody, V domains shown) VH: EVQLVESGGGLVQPGGSLRLSCAASGFTFSSYDMHWVRQATGKGLEWISAIGTTGDIYYADSVKGRFTISRENAENSLYLQMNSLRAGDTAVYYCARYRGAFDVWGQGTMVTVSS VL: EIVMTQSPVTLSLSPGERATLSCRASQSVGTYLAWYQQKPGQAPRLLIYDASNRATRIPARFSGSGSGTDFTLTISSLEPEDFAVYYCQQGSNWPLTFGGGTKVEIK
Result block: 7.92

Query block: Please give the measured pEC50 for this binder: 105-38 antibody (antibody, V domains shown) VH: EVQLVESGGGLVQPGGSLRLSCAASGFTFSSYWMHWVRQAPGKGLVWVSRINSDGSSTSYADSVKGRFTISRDNAKNTLYLQMNSLRAEDTAVYYCARVQWLRGEFDYWGQGTLVTVSS VL: DVVLTQPHSVSESPGKTVTISCTGSSGSIASNYVQWYQQRPGSAPTTVIYEDNQRPSGVPDRFSGSIDSSSNSASLTISGLKTEDEADYYCQSYDSSTDVVFGGGTELTVL
Result block: 9.37
